IC50 values, listed per item
- assayed-target: PCSK9 (Homo sapiens, UniProt Q8NBP7, G670E/V474I)
- Sequence (Q8NBP7 with tags, fused parts or gaps V474I/G670E): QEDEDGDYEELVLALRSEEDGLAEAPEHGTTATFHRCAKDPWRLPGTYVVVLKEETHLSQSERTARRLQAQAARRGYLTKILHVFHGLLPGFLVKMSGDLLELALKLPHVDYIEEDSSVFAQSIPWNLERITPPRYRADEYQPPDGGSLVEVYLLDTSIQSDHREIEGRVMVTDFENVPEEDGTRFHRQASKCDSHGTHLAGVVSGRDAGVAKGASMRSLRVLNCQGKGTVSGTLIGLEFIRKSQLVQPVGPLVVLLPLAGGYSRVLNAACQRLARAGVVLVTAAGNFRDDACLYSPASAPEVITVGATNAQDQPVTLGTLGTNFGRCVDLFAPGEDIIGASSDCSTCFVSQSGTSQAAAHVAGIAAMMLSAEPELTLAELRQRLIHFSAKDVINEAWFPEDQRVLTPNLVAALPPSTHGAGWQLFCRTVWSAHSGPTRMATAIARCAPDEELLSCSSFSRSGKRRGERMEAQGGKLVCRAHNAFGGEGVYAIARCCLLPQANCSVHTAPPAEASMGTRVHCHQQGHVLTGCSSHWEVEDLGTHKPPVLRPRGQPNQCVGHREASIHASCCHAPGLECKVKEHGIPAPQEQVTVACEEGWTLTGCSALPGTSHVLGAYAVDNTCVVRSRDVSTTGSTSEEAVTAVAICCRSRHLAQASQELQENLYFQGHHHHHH
- measurement-description: biochemical
Give the number; nM is assumed, so skip it.

Solved entries (count: 4):
1) Cc1ncc(N[C@H]2CC[C@H](Nc3ccc(-n4c(=O)n(C)c5ccccc54)cn3)C2)nc1C :: 3.2
2) Cn1ncc2ncc(N[C@H]3CC[C@H](Nc4ccc(-n5ccccc5=O)cn4)C3)nc21 :: 677
3) Cc1cnc(N[C@H]2CC[C@H](Nc3ccc(-n4c(=O)n(C)c5ccccc54)cn3)C2)cn1 :: 1.5
4) Cc1cnc(N[C@H]2CC[C@H](Nc3ccc(-n4nccc(C)c4=O)cn3)C2)cn1 :: 12

Could you now consider this next compound?
Query string: Let me know recorded IC50 for Cc1ncc(N[C@H]2CC[C@H](Nc3ccc(N4CC(=O)N(C)C4=O)cn3)C2)nc1C , thanks.
Result string: 103
